Consider the following binders and their measured median log2 fold change readings.
Target: T1, TRAF2, Q12933
T1 chain: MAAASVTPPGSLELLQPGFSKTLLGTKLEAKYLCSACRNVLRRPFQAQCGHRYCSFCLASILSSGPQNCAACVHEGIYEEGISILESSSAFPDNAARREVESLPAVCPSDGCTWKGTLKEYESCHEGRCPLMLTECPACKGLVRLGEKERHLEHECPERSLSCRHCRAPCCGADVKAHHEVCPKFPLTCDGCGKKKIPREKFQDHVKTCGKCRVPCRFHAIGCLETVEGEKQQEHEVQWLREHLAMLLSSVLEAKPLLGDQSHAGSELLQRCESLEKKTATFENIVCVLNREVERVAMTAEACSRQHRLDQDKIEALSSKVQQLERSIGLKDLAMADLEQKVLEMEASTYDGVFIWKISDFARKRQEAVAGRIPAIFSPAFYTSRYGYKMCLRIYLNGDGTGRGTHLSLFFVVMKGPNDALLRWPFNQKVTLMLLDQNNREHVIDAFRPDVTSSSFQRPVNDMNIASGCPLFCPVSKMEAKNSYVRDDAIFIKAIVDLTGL
Test: median log2 fold change of GCK-ALFA target abundance (FLAG IP / Myc IP barcode read proportion) (log2 ratio); each designed protein is fused to an ALFA-tag nanobody in HEK293 cells to bring the named protein to FLAG-tagged glucokinase (GCK); Myc marks an untargeted standard; higher = target protein stabilised (more abundant)
Conditions: target protein: 3xFLAG-MCP-GCK-ALFA reporter; HEK293 landing pad (RPLP)
Over roughly 1,800 sequences, “median log2 fold change of GCK-ALFA target abundance (FLAG IP / Myc IP barcode read proportion)” has its median near 0.14; the lowest 2% begin near -0.84. This is one part of a sample in which the lowest values are shown more often than they occur.
// return a plain number; no unit text

[[record]]
binder = "traf2_out_16_104_1376 (protein) SAATDAAFQAIIARLEAIAERAQRLANELMKLYEKASPEEKEKISDALVEVSELRRRALAAAEAVRQAQAAGGDLAEAQATLAELEARLAEAEARVEELK"
parameter_measured = "median log2 fold change"
value = 0.417


median log2 fold change recorded for this binder, traf2_out_3_89_2301 (protein) AAAEAAKIEAARARAERYARGFRKSARFVAKQMIADGMSLDTLRGVLEAARNALVEVFREELKEQGLSEETIEELVKELTEELEKIVEEILEEAEKKRAE , is -0.974

These measurements were taken from the supplement of paper PMC12632987.
